B1: ZNF207 (parent)
chain: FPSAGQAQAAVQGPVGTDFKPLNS

variants of: B1; assay: protein stability index of a GFP-peptide fusion (GPS, HEK-293T) (PSI 1-6); higher = more stable; settings: c terminus: a fixed tail appended;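 note: lentivirally expressed fusions sorted by FACS into six bins by GFP to DsRed ratio, PSI derived from sequencing read proportions per bin multiplied by bin number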
property: protein stability index

>>> print(df.to_string())
   variant_notation  reading
0               Q8F     1.48
1              P14F     2.55
2               A7P     3.51

**Query** Please give the measured protein stability index for this variant: F19I
**Result** 3.64

**Query** Would you mind doing T17V as well?
**Result** 2.81

**Query** Would you mind doing N23D as well?
**Result** 3.55

**Query** Would you mind doing S24G as well?
**Result** 3.15

**Query** Would you mind doing D18C as well?
**Result** 2.65

**Query** Would you mind doing Q8E as well?
**Result** 4.04

**Query** Would you mind doing F1V as well?
**Result** 4.92

**Query** Would you mind doing Q12R as well?
**Result** 3.1
